tested on: enriched B-cells from healthy volunteers; experiment: Inhibition of B-cell antibody production (IgG and IgM AlphaLISA); details: Homo sapiens, B-cell, 168 h, read-out: IgM antibody production IC50, TNP-LPS stimulation, T-independent, 7 days

>  <Smiles Code>
CC(C)(C=C(C#N)C(=O)N1CCC[C@@H](n2nc(-c3ccc(Oc4ccccc4)cc3F)c3c(N)ncnc32)C1)N1CCN(C2COC2)CC1

>  <IC50 (nM)>
200

$$$$

Reference source: patent US20210205312A1
